method: Biodistribution study in LNCaP tumor-bearing mice (Th227 counted in organs)
Type: in vivo, SCID mice
condition-details: 0.25 h; 1500 kBq/kg
From the text: SCID mice were randomly assigned to experimental groups, ten animals per group (efficacy) or n=3-5 per time point of biodistribution study. […] At the predetermined time point, n=3 animals were sacrificed, the organs removed, weight and measured in a Germanium detector to count the Th227 in the sample.
molecules and their reported Th-227 in Blood
Number in % ID Th-227/g organ, nothing else.

Solved entries:
Entry O=C([O-])CN1CCN(CC(=O)[O-])CCN(CC(=O)NCc2ccc(C(=O)N[C@@H](Cc3ccc4ccccc4n3)C(=O)NCCCC[C@H](NC(=O)N[C@@H](CCC(=O)O)C(=O)O)C(=O)O)nc2)CCN(CC(=O)[O-])CC1.[227Th+4] [Example 34-B-227Th] has what Th-227 in Blood?
1.78

Entry Cc1cc(C(=O)NCCN(CCCN(CCNC(=O)c2cc(C)n(CC(=O)O)c(=O)c2[O-])CCNC(=O)c2cc(C)n(CC(=O)NCC3CCC(C(=O)NC(Cc4cnc5ccccc5c4)C(=O)NCCCCC(NC(=O)NC(CCC(=O)O)C(=O)O)C(=O)O)CC3)c(=O)c2[O-])CCNC(=O)c2cc(C)n(CC(=O)NCC3CCC(C(=O)NC(Cc4cnc5ccccc5c4)C(=O)NCCCCC(NC(=O)NC(CCC(=O)O)C(=O)O)C(=O)O)CC3)c(=O)c2[O-])c([O-])c(=O)n1CC(=O)O.[227Th+4] (stereo not shown) [Example 22-C dimer-227Th] has what Th-227 in Blood?
3.35

Others:
Entry O=C([O-])CN1CCN(CC(=O)[O-])CCN(CC(=O)NCC2CCC(C(=O)NC(Cc3ccc4ccccc4c3)C(=O)NCCCCC(NC(=O)NC(CCC(=O)O)C(=O)O)C(=O)O)CC2)CCN(CC(=O)[O-])CC1.[227Th+4] [Example 1-B-D-227Th] has what Th-227 in Blood?
4.97

Entry O=C([O-])CN1CCN(CC(=O)[O-])CCN(CC(=O)NCC2CCC(C(=O)NC(Cc3ccc4ccccc4c3)C(=O)NCCCCC(NC(=O)NC(CCC(=O)O)C(=O)O)C(=O)O)CC2)CCN(CC(=O)[O-])CC1.[227Th+4] (stereo not shown) [Example 1-B-227Th] has what Th-227 in Blood?
6.68

----------
compounds and their reported Th-227 in Spleen
method: Biodistribution study in LNCaP tumor-bearing mice (Th227 counted in organs)
Format: in vivo, SCID mice
condition-details: 1 hr; 1500 kBq/kg

Entry O=C([O-])CN1CCN(CC(=O)[O-])CCN(CC(=O)NCC2CCC(C(=O)NC(Cc3ccc4ccccc4c3)C(=O)NCCCCC(NC(=O)NC(CCC(=O)O)C(=O)O)C(=O)O)CC2)CCN(CC(=O)[O-])CC1.[227Th+4] [Example 1-B-D-227Th] has what Th-227 in Spleen?
1.09% ID Th-227/g organ

Entry O=C([O-])CN1CCN(CC(=O)[O-])CCN(CC(=O)NCC2CCC(C(=O)NC(Cc3ccc4ccccc4c3)C(=O)NCCCCC(NC(=O)NC(CCC(=O)O)C(=O)O)C(=O)O)CC2)CCN(CC(=O)[O-])CC1.[227Th+4] (stereo not shown) [Example 1-B-227Th] has what Th-227 in Spleen?
9.16% ID Th-227/g organ

Entry O=C([O-])CN1CCN(CC(=O)[O-])CCN(CC(=O)NCc2ccc(C(=O)N[C@@H](Cc3ccc4ccccc4n3)C(=O)NCCCC[C@H](NC(=O)N[C@@H](CCC(=O)O)C(=O)O)C(=O)O)nc2)CCN(CC(=O)[O-])CC1.[227Th+4] [Example 34-B-227Th] has what Th-227 in Spleen?
19.69% ID Th-227/g organ

Others:
Entry Cc1cc(C(=O)NCCN(CCCN(CCNC(=O)c2cc(C)n(CC(=O)O)c(=O)c2[O-])CCNC(=O)c2cc(C)n(CC(=O)NCC3CCC(C(=O)NC(Cc4cnc5ccccc5c4)C(=O)NCCCCC(NC(=O)NC(CCC(=O)O)C(=O)O)C(=O)O)CC3)c(=O)c2[O-])CCNC(=O)c2cc(C)n(CC(=O)NCC3CCC(C(=O)NC(Cc4cnc5ccccc5c4)C(=O)NCCCCC(NC(=O)NC(CCC(=O)O)C(=O)O)C(=O)O)CC3)c(=O)c2[O-])c([O-])c(=O)n1CC(=O)O.[227Th+4] (stereo not shown) [Example 22-C dimer-227Th] has what Th-227 in Spleen?
8.93% ID Th-227/g organ

----------
compounds and their reported Th-227 in bone
method: Biodistribution study in LNCaP tumor-bearing mice (Th227 counted in organs)
Type: in vivo, SCID mice
condition-details: 1 hr; 1500 kBq/kg
Number in % ID Th-227/g organ, nothing else.

Entry O=C([O-])CN1CCN(CC(=O)[O-])CCN(CC(=O)NCc2ccc(C(=O)N[C@@H](Cc3ccc4ccccc4n3)C(=O)NCCCC[C@H](NC(=O)N[C@@H](CCC(=O)O)C(=O)O)C(=O)O)nc2)CCN(CC(=O)[O-])CC1.[227Th+4] [Example 34-B-227Th] has what Th-227 in bone?
1.27

Entry Cc1cc(C(=O)NCCN(CCCN(CCNC(=O)c2cc(C)n(CC(=O)O)c(=O)c2[O-])CCNC(=O)c2cc(C)n(CC(=O)NCC3CCC(C(=O)NC(Cc4cnc5ccccc5c4)C(=O)NCCCCC(NC(=O)NC(CCC(=O)O)C(=O)O)C(=O)O)CC3)c(=O)c2[O-])CCNC(=O)c2cc(C)n(CC(=O)NCC3CCC(C(=O)NC(Cc4cnc5ccccc5c4)C(=O)NCCCCC(NC(=O)NC(CCC(=O)O)C(=O)O)C(=O)O)CC3)c(=O)c2[O-])c([O-])c(=O)n1CC(=O)O.[227Th+4] (stereo not drawn) [Example 22-C dimer-227Th] has what Th-227 in bone?
1.12

Entry O=C([O-])CN1CCN(CC(=O)[O-])CCN(CC(=O)NCC2CCC(C(=O)NC(Cc3ccc4ccccc4c3)C(=O)NCCCCC(NC(=O)NC(CCC(=O)O)C(=O)O)C(=O)O)CC2)CCN(CC(=O)[O-])CC1.[227Th+4] [Example 1-B-D-227Th] has what Th-227 in bone?
0.99

----------
method: Biodistribution study in LNCaP tumor-bearing mice (Th227 counted in organs)
Format: in vivo, SCID mice
condition-details: 96 h; 1500 kBq/kg
molecules and their reported Th-227 in Spleen
Record the result as number plus unit.

Entry O=C([O-])CN1CCN(CC(=O)[O-])CCN(CC(=O)NCC2CCC(C(=O)NC(Cc3ccc4ccccc4c3)C(=O)NCCCCC(NC(=O)NC(CCC(=O)O)C(=O)O)C(=O)O)CC2)CCN(CC(=O)[O-])CC1.[227Th+4] (stereo not shown) [Example 1-B-227Th] has what Th-227 in Spleen?
2.79% ID Th-227/g organ

Others:
Entry O=C([O-])CN1CCN(CC(=O)[O-])CCN(CC(=O)NCC2CCC(C(=O)NC(Cc3ccc4ccccc4c3)C(=O)NCCCCC(NC(=O)NC(CCC(=O)O)C(=O)O)C(=O)O)CC2)CCN(CC(=O)[O-])CC1.[227Th+4] [Example 1-B-D-227Th] has what Th-227 in Spleen?
0.29% ID Th-227/g organ

Entry Cc1cc(C(=O)NCCN(CCCN(CCNC(=O)c2cc(C)n(CC(=O)O)c(=O)c2[O-])CCNC(=O)c2cc(C)n(CC(=O)NCC3CCC(C(=O)NC(Cc4cnc5ccccc5c4)C(=O)NCCCCC(NC(=O)NC(CCC(=O)O)C(=O)O)C(=O)O)CC3)c(=O)c2[O-])CCNC(=O)c2cc(C)n(CC(=O)NCC3CCC(C(=O)NC(Cc4cnc5ccccc5c4)C(=O)NCCCCC(NC(=O)NC(CCC(=O)O)C(=O)O)C(=O)O)CC3)c(=O)c2[O-])c([O-])c(=O)n1CC(=O)O.[227Th+4] (stereo not shown) [Example 22-C dimer-227Th] has what Th-227 in Spleen?
0.43% ID Th-227/g organ

Entry O=C([O-])CN1CCN(CC(=O)[O-])CCN(CC(=O)NCc2ccc(C(=O)N[C@@H](Cc3ccc4ccccc4n3)C(=O)NCCCC[C@H](NC(=O)N[C@@H](CCC(=O)O)C(=O)O)C(=O)O)nc2)CCN(CC(=O)[O-])CC1.[227Th+4] [Example 34-B-227Th] has what Th-227 in Spleen?
0.43% ID Th-227/g organ

----------
compounds and their reported Th-227 in small intestine
method: Biodistribution study in LNCaP tumor-bearing mice (Th227 counted in organs)
Assay type: in vivo, SCID mice
condition-details: 96 h; 1500 kBq/kg
Number in % ID Th-227/g organ, nothing else.

Solved entries:
Entry Cc1cc(C(=O)NCCN(CCCN(CCNC(=O)c2cc(C)n(CC(=O)O)c(=O)c2[O-])CCNC(=O)c2cc(C)n(CC(=O)NCC3CCC(C(=O)NC(Cc4cnc5ccccc5c4)C(=O)NCCCCC(NC(=O)NC(CCC(=O)O)C(=O)O)C(=O)O)CC3)c(=O)c2[O-])CCNC(=O)c2cc(C)n(CC(=O)NCC3CCC(C(=O)NC(Cc4cnc5ccccc5c4)C(=O)NCCCCC(NC(=O)NC(CCC(=O)O)C(=O)O)C(=O)O)CC3)c(=O)c2[O-])c([O-])c(=O)n1CC(=O)O.[227Th+4] (stereo not shown) [Example 22-C dimer-227Th] has what Th-227 in small intestine?
0.04

Entry O=C([O-])CN1CCN(CC(=O)[O-])CCN(CC(=O)NCc2ccc(C(=O)N[C@@H](Cc3ccc4ccccc4n3)C(=O)NCCCC[C@H](NC(=O)N[C@@H](CCC(=O)O)C(=O)O)C(=O)O)nc2)CCN(CC(=O)[O-])CC1.[227Th+4] [Example 34-B-227Th] has what Th-227 in small intestine?
0.25

Entry O=C([O-])CN1CCN(CC(=O)[O-])CCN(CC(=O)NCC2CCC(C(=O)NC(Cc3ccc4ccccc4c3)C(=O)NCCCCC(NC(=O)NC(CCC(=O)O)C(=O)O)C(=O)O)CC2)CCN(CC(=O)[O-])CC1.[227Th+4] [Example 1-B-D-227Th] has what Th-227 in small intestine?
0.06

Others:
Entry O=C([O-])CN1CCN(CC(=O)[O-])CCN(CC(=O)NCC2CCC(C(=O)NC(Cc3ccc4ccccc4c3)C(=O)NCCCCC(NC(=O)NC(CCC(=O)O)C(=O)O)C(=O)O)CC2)CCN(CC(=O)[O-])CC1.[227Th+4] (stereo not shown) [Example 1-B-227Th] has what Th-227 in small intestine?
0.21
